Test system: antibody core fucosylation in CHO DG44 cell line producing h1F6
Assay: Effect of fucose analogs on antibody core fucosylation (h1F6 from CHO DG44 culture)
Format: cell-based, Chinese hamster
Conditions: Cricetulus griseus, CHO-DG44, 120 h, Table 2; 1 mM fucose analog, day 5
Experimental: Media was supplemented with insulin like growth factor (IGF), penicillin, streptomycin and either 1 mM or 50 μM of the fucose analog (prepared as described supra). On day 5 post inoculation, the culture was centrifuged at 13000 RPM for 5 minutes to pellet cells; antibodies were then purified from supernatant. Antibody purification was performed by applying the conditioned media to protein A resin pre-equilibrated with 1× phosphate buffered saline (PBS), pH 7.4. […]
measuredProperty: inhibition at 1000 µM (%)

| compound | measurementUnits | qualifyingSign | numericReadout |
| --- | --- | --- | --- |
| CC(=O)OC1O[C@@H](C)[C@@H](OC(C)=O)[C@@H](OC(C)=O)[C@@H]1F (stereo partly drawn) [2-deoxy-2-fluorofucose peracetate] | % | > | 80 |
| CC(=O)O[C@H]1C[C@H](OC(C)=O)[C@H](OC(C)=O)[C@H](C)O1 | % | = | 36 |
| C[C@H](O)[C@@H](O)[C@@H](O)[C@H](F)C=O [2-deoxy-2-fluorofucose] | % | > | 80 |
| C=C=C[C@@H]1OC(OC(C)=O)[C@@H](OC(C)=O)[C@H](OC(C)=O)[C@@H]1OC(C)=O (stereo partly drawn) [Allene] | % | = | 34 |
| CC(=O)O[C@@H]1[C@H](C)O[C@H](OC(C)=O)C(F)(F)[C@@H]1OC(C)=O | % | = | 75 |
| CC(=O)OC1O[C@@H](C)[C@@H](OC(C)=O)[C@@H](OC(C)=O)[C@@H]1Cl (stereo partly drawn) [2-deoxy-2-chlorofucose triacetate] | % | > | 80 |
| CC(=O)O[C@@H]1[C@H](C)O[C@@H](OC(C)=O)C(F)(F)[C@@H]1OC(C)=O | % | = | 64 |
| CC(=O)OC1O[C@@H](COCc2ccccc2)[C@@H](OC(C)=O)[C@@H](OC(C)=O)[C@@H]1OC(C)=O (stereo partly drawn) [5-Benzyloxy fucose peracetate] | % | = | 75 |
| CC(=O)OC1O[C@@H](C(F)F)[C@@H](OC(C)=O)[C@@H](OC(C)=O)[C@@H]1OC(C)=O (stereo partly drawn) [6,6-difluorofucose tetraacetate] | % | > | 80 |
